Attribute: normalized growth
assay: chemical genetic growth profiling, strain panel (AID 1159580);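 also: tested at 20 µM; growth read once vehicle control cultures reached saturation at 30 °C; 1 = growth at the plate median or of vehicle wells; lower values mean less growth of the strain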; settings: S. cerevisiae deletion strains, growth OD, locus YFR010W, strain ubp6, hits give low values
Out of some 5,500 compounds screened, about 2,000 (36%) were called active. Not shown: some 18% with an inconclusive outcome. This is one part of the list.
I only need the number, thanks.

Below are worked cases with known answers.
molecule: FC(F)(F)C(Cl)Br (configuration not stated)
normalized growth: 1.03
//
molecule: O=C(O)c1nc2cc(Cl)c(Cl)cc2[nH]c1=O
normalized growth: 1.03
//
molecule: CCCCCCCCCc1ccc(O)cc1
normalized growth: 0.0798
//
molecule: COc1cccc2c1cc([N+](=O)[O-])c1c(C(=O)O)cc3c(c12)OCO3
normalized growth: 1.02
//
molecule: CC(=O)Oc1ccc(-c2cc(=O)c3c(OC(C)=O)cc(OC(C)=O)cc3o2)cc1
normalized growth: 0.957
//
molecule: CC(C)(Oc1ccc(Cl)cc1)C(=O)O
normalized growth: 0.976
//
molecule: O=c1[nH]c2cc(Cl)c(Cl)cc2[nH]c1=O
normalized growth: 0.985
//
molecule: C[N+]1(CCCCC[N+]2(C)CCCC2)CCCC1
normalized growth: 0.998

Record summary for "CC1=C2C(=CO[C@H](C)[C@H]2C)C(=O)C(C(=O)O)=C1O" : reported normalized growth = 0.991

Record summary for "NCCc1ccc(O)cc1" : reported normalized growth = 0.957

Record summary for "CC(=O)N(O)CCCCCNC(=O)CCC(=O)N(O)CCCCCNC(=O)CCC(=O)N(O)CCCCCN" : reported normalized growth = 0.986

Record summary for "CC(=O)O.CC(=O)O.[Cd]" : reported normalized growth = 0.356

###

assay: chemical genetic growth profiling, strain panel (AID 1159580);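 also: tested at 20 µM; growth read once vehicle control cultures reached saturation at 30 °C; 1 = growth at the plate median or of vehicle wells; lower values mean less growth of the strain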; conditions: S. cerevisiae deletion strains, growth OD, locus YPL051W, strain arl3
About 2,000 (36%) of roughly 5,500 compounds were called active. Another 18% or so got no clear call; they are omitted. Rule as the data show it: active = normalized growth mostly below about 0.91 (no sharp cut-off); inconclusive = no clear call, values can overlap the other calls; inactive = mostly above about 0.92. This is one part of the list.
Answer with one of the outcomes active, inactive

Answered cases to consult:
compound: O=C(O)/C=C(\CC(=O)O)C(=O)O
assignedLabel: inactive

compound: O=C1c2c(O)ccc(O)c2C(=O)c2c(NCCNCCO)ccc(NCCNCCO)c21
assignedLabel: active

compound: C[C@@H]1CC[C@@]2(OC1)OC1C(O)C3C4CC[C@H]5C[C@H](O[C@@H]6O[C@H](CO)[C@H](O[C@@H]7O[C@H](CO)[C@@H](O)[C@H](O[C@@H]8OC[C@@H](O)[C@H](O)[C@H]8O)[C@H]7O[C@@H]7O[C@H](CO)[C@H](O)[C@H](O[C@@H]8O[C@H](CO)[C@@H](O)[C@H](O)[C@H]8O)[C@H]7O)[C@H](O)[C@H]6O)[C@H](O)C[C@]5(C)C4CC[C@]3(C)C1[C@@H]2C (stereo not given in full)
assignedLabel: inactive

compound: CC(=O)O[C@H]1C[C@H](O[C@H]2[C@@H](O)C[C@H](O[C@H]3[C@@H](O)C[C@H](O[C@H]4CC[C@@]5(C)C(CCC6C5C[C@@H](O)[C@]5(C)[C@@H](C7=CC(=O)OC7)CC[C@]65O)C4)O[C@@H]3C)O[C@@H]2C)O[C@H](C)[C@H]1O[C@@H]1O[C@H](CO)[C@@H](O)[C@H](O)[C@H]1O (stereo not given in full)
assignedLabel: inactive

In: Hi, sorry to bother you, what did the test record for "CCCCCCCCCc1ccc(O)cc1" ?
Out: active
